Provide the reported polymerase ribozyme fitness (log ratio) of each item.
B1: TPR 5TU (parent)
chain: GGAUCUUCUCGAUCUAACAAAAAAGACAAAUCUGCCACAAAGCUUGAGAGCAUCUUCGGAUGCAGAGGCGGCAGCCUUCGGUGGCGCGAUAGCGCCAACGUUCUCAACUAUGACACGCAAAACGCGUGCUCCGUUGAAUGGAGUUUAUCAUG

Variants of: B1
assay.overview: polymerase ribozyme fitness, log enrichment relative to wild type (log ratio); higher = more active; in vitro selection for triplet polymerase activity
This sample holds only a part of the variants without activity.

Just so you know, measured polymerase ribozyme fitness (log ratio) for C8U G42C C51U U61G C95A C125G U127G A137U C149G came out at ≤ -4.2

Just so you know, measured polymerase ribozyme fitness (log ratio) for C14A A49G C54U G71A U77C G86U G143A came out at ≤ -4.2

Just so you know, measured polymerase ribozyme fitness (log ratio) for G48C C87G G88C A91G A119U U134G came out at ≤ -4.2
